Molecular target: recombinant human GSK-3β (Homo sapiens)
Test: Kinase Inhibition Assay (GSK-3β, 33P phosphoCREB peptide filter assay)
Type: biochemical
ATTRIBUTE_MEASURED: pIC50
Hey, just a heads up that pIC50 is the negative log base 10 of the concentration in molar.

query: Fill in the blank: the reported pIC50 of "COc1cc(C2=C(c3cn(CCN4CCN(C)CC4)c4ccccc34)C(=O)NC2=O)c2occc2c1" is ____.
result: 6.84

----------
For each of the compounds below, state its pIC50.
Target: recombinant human GSK-3β (Homo sapiens, UniProt P49841)
Sequence (P49841 whole entry): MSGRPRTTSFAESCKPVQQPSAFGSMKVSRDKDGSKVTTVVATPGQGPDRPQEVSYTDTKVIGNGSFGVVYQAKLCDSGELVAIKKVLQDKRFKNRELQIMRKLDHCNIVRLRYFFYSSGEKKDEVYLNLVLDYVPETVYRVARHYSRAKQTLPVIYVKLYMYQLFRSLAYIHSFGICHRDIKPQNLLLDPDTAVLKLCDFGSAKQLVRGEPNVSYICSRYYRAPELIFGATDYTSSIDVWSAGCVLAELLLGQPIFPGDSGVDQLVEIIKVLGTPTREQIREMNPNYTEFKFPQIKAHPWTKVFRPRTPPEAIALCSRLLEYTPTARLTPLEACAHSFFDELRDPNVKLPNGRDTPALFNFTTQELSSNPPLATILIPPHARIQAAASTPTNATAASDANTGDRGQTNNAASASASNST
Assay: Kinase Inhibition Assay (GSK-3β, 33P phosphoCREB peptide filter assay)
Format: biochemical
Details: Table II; 1 nM recombinant human GSK-3β, 50 μM ATP, 60 minutes at room temperature; read-out: GSK-3β IC50
Where a name gives a salt, the structure may show the parent alone.
Hey, just a heads up that pIC50 is the negative log base 10 of the concentration in molar.

query: Fill in the blank: the reported pIC50 of "CCN(CC)CCCc1cccc2c(C3=C(c4cccc5ccoc45)C(=O)NC3=O)cn(C)c12" is ____.
result: 6.90

query: Please give the result for "COc1ccc(C2=C(c3cn(CCCCN(C)C)c4ccccc34)C(=O)NC2=O)c2occc12" too.
result: 7.15

query: Please give the result for CCN(CC)CCCOc1ccc2c(c1)c(C1=C(c3cc(F)cc4ccoc34)C(=O)NC1=O)cn2C(C)C [Example 114, hydrochloride] too.
result: 6.88

query: Please give the result for "Cn1ccc2c(C3=C(c4cn(CCCO)c5ccccc45)C(=O)NC3=O)cccc21" too.
result: 6.76

query: Please give the result for Cl.Cn1cc(C2=C(c3cccc4ccoc34)C(=O)NC2=O)c2cc(OCCNCC3CC3)ccc21 [Example 119, hydrochloride] too.
result: 8.02

query: Please give the result for "O=C1NC(=O)C(c2cccc3ccoc23)=C1c1cn(C2CCNCC2)c2ccccc12" too.
result: 8.24

query: Please give the result for "Cn1cc(C2=C(c3ccc(O)c4ccoc34)C(=O)NC2=O)c2ccccc21" too.
result: 7.26

query: Please give the result for CC(C)CN[C@H]1CC[C@H](n2cc(C3=C(c4cccc5ccoc45)C(=O)NC3=O)c3c(F)cccc32)CC1 [Example 150, hydrochloride] too.
result: 7.97

Recorded values, source patent US7405305B2.
